# TARGET DESC: H influenzae MetG (Haemophilus influenzae)
# Sequence (P43828 whole entry): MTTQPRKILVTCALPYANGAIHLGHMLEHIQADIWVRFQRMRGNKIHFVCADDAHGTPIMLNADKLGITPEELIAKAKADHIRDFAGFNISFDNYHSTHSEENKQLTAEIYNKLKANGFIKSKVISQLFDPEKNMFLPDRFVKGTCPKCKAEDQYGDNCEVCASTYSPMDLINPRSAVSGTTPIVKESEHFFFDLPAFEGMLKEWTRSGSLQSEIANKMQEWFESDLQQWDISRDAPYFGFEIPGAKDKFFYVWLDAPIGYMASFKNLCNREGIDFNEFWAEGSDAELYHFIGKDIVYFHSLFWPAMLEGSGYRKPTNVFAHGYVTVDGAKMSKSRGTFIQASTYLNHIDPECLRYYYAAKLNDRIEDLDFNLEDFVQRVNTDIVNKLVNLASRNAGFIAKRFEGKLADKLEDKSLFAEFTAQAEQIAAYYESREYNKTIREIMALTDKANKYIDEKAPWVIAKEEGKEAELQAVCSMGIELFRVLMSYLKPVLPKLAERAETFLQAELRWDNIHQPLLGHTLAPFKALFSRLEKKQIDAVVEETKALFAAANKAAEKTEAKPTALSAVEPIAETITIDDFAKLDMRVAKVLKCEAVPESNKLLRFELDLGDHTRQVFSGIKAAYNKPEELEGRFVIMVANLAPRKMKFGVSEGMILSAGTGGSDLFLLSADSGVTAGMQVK
REPORTED PROPERTY: IC50 (µM)
Write the number in µM without appending the unit.

Given `C=C(F)c1sc(CNCCCNc2cc(=O)c3ccccc3[nH]2)c(C)c1Br` , state its recorded IC50.
0.025

###

# TARGET DESC: S. pneumoniae MetS2 (Streptococcus pneumoniae, UniProt A2MSJ4)
# Sequence (A2MSJ4 1-545): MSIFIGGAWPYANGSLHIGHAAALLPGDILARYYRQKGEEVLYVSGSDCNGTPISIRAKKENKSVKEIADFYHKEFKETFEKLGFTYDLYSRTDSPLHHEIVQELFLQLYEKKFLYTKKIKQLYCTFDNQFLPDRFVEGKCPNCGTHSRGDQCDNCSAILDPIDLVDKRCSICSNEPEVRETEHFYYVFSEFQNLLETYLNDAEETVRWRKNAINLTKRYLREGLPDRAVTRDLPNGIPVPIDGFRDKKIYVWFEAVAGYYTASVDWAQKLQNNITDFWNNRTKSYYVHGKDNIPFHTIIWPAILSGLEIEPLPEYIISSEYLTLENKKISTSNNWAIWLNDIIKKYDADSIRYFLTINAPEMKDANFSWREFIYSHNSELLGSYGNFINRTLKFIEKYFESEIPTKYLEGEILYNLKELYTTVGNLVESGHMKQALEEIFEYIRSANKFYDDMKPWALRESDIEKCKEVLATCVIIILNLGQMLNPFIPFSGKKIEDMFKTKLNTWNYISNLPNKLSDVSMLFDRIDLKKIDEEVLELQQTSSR
# TEST: biochemical
pIC50: −log10 of the molar value.
REPORTED PROPERTY: pIC50

Provide value of pIC50 for this record tested with S. pneumoniae MetS2 (Streptococcus pneumoniae, UniProt A2MSJ4): C=C(F)c1sc(CNCCCNc2cc(=O)c3ccccc3[nH]2)c(C)c1Br [Compound 1]
< 6.30

###

# TARGET DESC: E. coli MetG (Escherichia coli)
# Sequence (P00959 whole entry, looked up): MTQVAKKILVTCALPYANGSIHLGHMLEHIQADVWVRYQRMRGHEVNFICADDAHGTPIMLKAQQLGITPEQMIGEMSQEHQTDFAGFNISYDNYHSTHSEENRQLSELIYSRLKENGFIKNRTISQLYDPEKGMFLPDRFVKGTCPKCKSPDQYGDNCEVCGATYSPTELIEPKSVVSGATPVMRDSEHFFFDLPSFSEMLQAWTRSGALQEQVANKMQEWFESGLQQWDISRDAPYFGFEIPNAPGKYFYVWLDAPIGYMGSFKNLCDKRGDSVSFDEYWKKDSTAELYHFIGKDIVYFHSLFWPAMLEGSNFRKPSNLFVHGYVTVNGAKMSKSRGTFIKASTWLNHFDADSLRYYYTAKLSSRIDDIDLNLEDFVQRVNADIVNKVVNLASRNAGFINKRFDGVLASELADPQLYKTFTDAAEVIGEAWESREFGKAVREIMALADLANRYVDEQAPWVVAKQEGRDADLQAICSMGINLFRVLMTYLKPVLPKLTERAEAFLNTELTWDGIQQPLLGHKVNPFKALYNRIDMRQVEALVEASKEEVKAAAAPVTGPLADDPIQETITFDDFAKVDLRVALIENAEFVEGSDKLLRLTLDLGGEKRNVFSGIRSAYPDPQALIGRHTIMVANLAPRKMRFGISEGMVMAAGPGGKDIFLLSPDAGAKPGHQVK
REPORTED PROPERTY: pIC50
Just the number, please; pIC50 means minus log10 of the concentration in mol/L.

Provide value of pIC50 for this record tested with E. coli MetG (Escherichia coli): C=C(F)c1sc(CNCCCNc2cc(=O)c3ccccc3[nH]2)c(C)c1Br [Compound 1]
6.51

###

# TARGET DESC: S. aureus MetS (Staphylococcus aureus, UniProt P67579)
# Sequence (P67579 whole entry): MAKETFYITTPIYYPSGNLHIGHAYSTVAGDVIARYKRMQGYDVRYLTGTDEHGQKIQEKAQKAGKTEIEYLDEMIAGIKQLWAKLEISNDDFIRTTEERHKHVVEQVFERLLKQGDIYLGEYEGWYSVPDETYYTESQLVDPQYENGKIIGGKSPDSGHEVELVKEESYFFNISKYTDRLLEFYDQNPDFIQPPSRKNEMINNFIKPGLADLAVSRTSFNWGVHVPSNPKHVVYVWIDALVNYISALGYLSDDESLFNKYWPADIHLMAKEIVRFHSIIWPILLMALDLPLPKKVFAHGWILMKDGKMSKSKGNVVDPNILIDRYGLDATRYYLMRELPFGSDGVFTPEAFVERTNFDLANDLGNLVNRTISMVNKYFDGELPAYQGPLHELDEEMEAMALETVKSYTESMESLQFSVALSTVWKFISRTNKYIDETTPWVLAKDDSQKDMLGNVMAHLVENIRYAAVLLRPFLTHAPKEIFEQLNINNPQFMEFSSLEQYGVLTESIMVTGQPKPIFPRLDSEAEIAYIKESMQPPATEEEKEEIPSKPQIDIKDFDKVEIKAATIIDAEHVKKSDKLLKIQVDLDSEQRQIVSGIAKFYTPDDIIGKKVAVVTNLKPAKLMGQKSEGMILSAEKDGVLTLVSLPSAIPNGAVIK
REPORTED PROPERTY: IC50

Given `C=C(F)c1sc(CNCCCNc2cc(=O)c3ccccc3[nH]2)c(C)c1Br` , state its recorded IC50.
< 1.9 nM

Values were extracted from patent US20080138835A1.
